Would you mind telling me the reported MBC Aba of each entry?
# Test system: Acinetobacter baumannii ATCC 17978
# Condition description: MHB, 5 × 10^5 CFU/mL, 18 h, 35 °C, triplicate
Non-standard residues stand in square brackets, D forms with d. Residues, ends and D or L forms follow the SMILES beside them. *: point of attachment. Leu(ol) = CC(C)C[C@H](N)CO; Octanoyl = CCCCCCCC(=O)*; Aib = CC(C)(N)C(=O)O
Provide only the numeric value, understood in µg/mL.

Record CCCCCCCC(=O)NC(C)(C)C(=O)N[C@@H](CCCCN)C(=O)N[C@@H](CC(C)C)C(=O)NC(C)(C)C(=O)N[C@@H](CCCCN)C(=O)N[C@@H](CCCCN)C(=O)N[C@@H](CC(C)C)C(=O)NC(C)(C)C(=O)NCC(=O)N[C@H](C(=O)N[C@@H](CC(C)C)C(N)=O)[C@@H](C)CC [Peptide 11] (Octanoyl-[Aib]KL[Aib]KKL[Aib]GIL-NH2) . Reported MBC Aba: 2

Record CCCCCCCC(=O)NC(C)(C)C(=O)N[C@@H](CCCCN)C(=O)N[C@@H](CC(C)C)C(=O)NC(C)(C)C(=O)N[C@@H](CCCCN)C(=O)N[C@@H](CCCCN)C(=O)N[C@@H](CC(C)C)C(=O)NC(C)(C)C(=O)N[C@@H](CCCCN)C(=O)N[C@H](C(=O)N[C@H](CO)CC(C)C)[C@@H](C)CC [Peptide 7] (Octanoyl-[Aib]KL[Aib]KKL[Aib]KI[Leu(ol)]) . Reported MBC Aba: 16

Record CCCCCCCC(=O)NC(C)(C)C(=O)N[C@@H](CCCCN)C(=O)N[C@@H](CC(C)C)C(=O)NC(C)(C)C(=O)NCC(=O)NCC(=O)N[C@@H](CC(C)C)C(=O)NC(C)(C)C(=O)NCC(=O)N[C@H](C(=O)N[C@@H](CC(C)C)C(N)=O)[C@@H](C)CC [Peptide 2] (Octanoyl-[Aib]KL[Aib]GGL[Aib]GIL-NH2) . Reported MBC Aba: 16

Record CCCCCCCC(=O)NC(C)(C)C(=O)NCC(=O)N[C@@H](CC(C)C)C(=O)NC(C)(C)C(=O)N[C@@H](CCCCN)C(=O)N[C@@H](CCCCN)C(=O)N[C@@H](CC(C)C)C(=O)NC(C)(C)C(=O)NCC(=O)N[C@H](C(=O)N[C@H](CO)CC(C)C)[C@@H](C)CC [Peptide 4] . Reported MBC Aba: 2

Record CCCCCCCC(=O)NC(C)(C)C(=O)NCC(=O)N[C@@H](CC(C)C)C(=O)NC(C)(C)C(=O)NCC(=O)NCC(=O)N[C@@H](CC(C)C)C(=O)NC(C)(C)C(=O)N[C@@H](CCCCN)C(=O)N[C@H](C(=O)N[C@H](CO)CC(C)C)[C@@H](C)CC [Peptide 9] (Octanoyl-[Aib]GL[Aib]GGL[Aib]KI[Leu(ol)]) . Reported MBC Aba: 8

Record CCCCCCCC(=O)NC(C)(C)C(=O)N[C@@H](CCCCN)C(=O)N[C@@H](CC(C)C)C(=O)NC(C)(C)C(=O)N[C@@H](CCCCN)C(=O)NCC(=O)N[C@@H](CC(C)C)C(=O)NC(C)(C)C(=O)NCC(=O)N[C@H](C(=O)N[C@H](CO)CC(C)C)[C@@H](C)CC [Peptide 1] (Octanoyl-[Aib]KL[Aib]KGL[Aib]GI[Leu(ol)]) . Reported MBC Aba: 16
